Measured %Inh values are reported for all entries that follow.
System: MLK2;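 further: KINOMEscan kinase panel screen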
Details: concentration: 1 μM, replicates: in singlicate; n = 1
Value Type: %Inh (%)

* O=C(Nc1n[nH]c2nc(-c3cccs3)c(Br)cc12)C1CCCC1 | 38
* Cn1cnc2c(N)ncnc21 | 0
* COc1ccc(Nc2nccc(-c3ccc(NC(=O)c4cc5cc(F)ccc5[nH]4)cc3)n2)cc1 | 0
* CC(=O)c1cccc(NC(=O)NC2CCN(c3ccnc(Nc4ccc(F)cc4)n3)C2)c1 (stereo not drawn) | 0
* COC(=O)C(NC(=O)NC1CCN(c2ccnc(Nc3ccc(F)cc3)n2)C1)c1ccccc1 (stereo not drawn) | 0
* COc1ccc(-c2coc3ccc(-c4nnc(C)o4)cc23)cc1 | 5
* NS(=O)(=O)c1cccc(N/C=C2\C(=O)Nc3ccc(S(=O)(=O)Cc4c(Cl)cccc4Cl)cc32)c1 | 0
* CC(C)c1ccc(O)cc1Nc1ccnc2ccc(C(F)(F)F)cc12 | 5
* COc1cccc(CNC(=O)NC2CCN(c3ccnc(Nc4ccc(F)cc4)n3)C2)c1 (stereo not drawn) | 0
* c1ccc(-c2ccnc3[nH]ccc23)cc1 | 0
* CNc1nc(-c2ccc3c(N)n[nH]c3c2)cc(N2C[C@@H](C(=O)Nc3ccccc3)CC[C@H]2C)n1 | 0
* COC(=O)C(Cc1ccccc1)NC(=O)NC1CCN(c2ccnc(Nc3ccc(F)cc3)n2)C1 (stereo not drawn) | 0
* COc1cc2ncnc(Nc3cccc(Br)c3)c2cc1OC.Cl | 0
* Cc1cnc(N)c(/C=C/c2cncc(C(=O)NCCc3ccc(Cl)cc3Cl)c2)c1.Cl | 0
* COc1ccc(CSc2nnc(-c3ccc4ncsc4c3)o2)cc1C(F)(F)F | 23
* CCn1c(-c2c(N)noc2C)nc2cnccc21 | 0
* Cc1ccc(NC(=O)Nc2ccc(Cl)cc2)cc1-c1ccc(C(=O)Nc2ccncc2)cc1 | 0
* Nc1ncnc2occ(-c3ccc4c(c3)CCN4C(=O)Cc3cc(F)ccc3F)c12 | 10
* Cc1cccc2c(-c3ccncn3)c(-c3ccc(F)cc3)nn12 | 28
* Cc1ccccc1Cn1ccn2c(=O)cc(N3CCOCC3)nc12 | 17
* CS(=O)(=O)CCNCc1nc(-c2ccc3ncnc(Nc4ccc(OCc5ccccc5)c(Cl)c4)c3c2)cs1.Cl | 0
* Cc1c(Cn2c3ccccc3n3c(=O)cc(N4CCOCC4)nc23)cccc1C(F)(F)F | 2
* Cc1c(Cn2c(C)c(C)n3c(=O)cc(N4CCOCC4)nc23)cccc1C(F)(F)F | 0
* O=c1cc(N2CCOCC2)nc2n(Cc3ccccc3F)ccn12 | 0
* O=C(Nc1n[nH]c2nc(-c3cccs3)c(Br)cc12)C1CC1 | 0
* Cl.Cl.Cl.N#Cc1ccc(CCNc2nccc(-c3cccc(CN4CCNCC4)c3)n2)cc1 | 0
* Fc1ccc(-c2nc[nH]c2-c2ccncc2)cc1 | 30
* Fc1ccc(-c2nc3n(c2-c2ccncc2)CCS3)cc1 | 19
* Cn1cncc1C(=O)NC1CCN(c2ccnc(Nc3ccc(F)cc3)n2)C1 (stereo not drawn) | 0
* Cc1ccc(NC(=O)Nc2ccccc2)cc1-c1ccc(C(=O)Nc2ccncc2)cc1 | 0
* CN1c2ccc(-c3ccc(C(N)=O)cc3)cc2-c2[nH]ncc2S1(=O)=O | 26
* O=c1cc(N2CCOCC2)nc2n(Cc3cccc(Cl)c3Cl)c3ccccc3n12 | 32
* CS(=O)(=O)CCNCc1nc(-c2ccc3ncnc(Nc4ccc5c(cnn5Cc5ccccc5)c4)c3c2)cs1.Cl.Cl | 0
* COc1ccc(CSc2nnc(-c3ccc4c(c3)CCO4)o2)cc1 | 15
* CC(=O)c1c(C)c2cnc(Nc3ccn(C)n3)nc2n(C2CCCC2)c1=O | 21
* Cc1ccc(NC(=O)Nc2ccccc2F)cc1-c1ccc(C(=O)Nc2ccncc2)cc1 | 17
